Items are presented alongside their recorded protein stability index.
B1: MLL5 (parent)
chain: EQIAERKRKMVSWEASSLGLVTAA

Variants of: B1
TEST_DETAILS: protein stability index of a GFP-peptide fusion (GPS, HEK-293T) (PSI 1-6); higher = more stable;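 also: lentivirally expressed fusions sorted by FACS into six bins by GFP to DsRed ratio, PSI derived from sequencing read proportions per bin multiplied by bin number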
CONDITION_SUMMARY: c terminus: a fixed tail appended
ATTRIBUTE_MEASURED: protein stability index

S16L
1.99
E14Y
2.52
V11S
2.99
L20W
2.42
E14C
2.49
A15E
3
V21P
2.44
S17N
2.71
V21R
2.96
A15M
2.64
A15Y
2.26
E1L
2.53
E14L
2.95
K7M
1.7
S12E
3.92
S12D
2.85
R6M
2.88
M10G
4.16
S12M
3.36
E14T
3
R8S
2.97
E14G
2.2
